Value source: patent US20080026996A1

- target.or.system: T1, rat VPAC1 receptor (rat, UniProt P30083 31-459)
- T1 sequence (looked up): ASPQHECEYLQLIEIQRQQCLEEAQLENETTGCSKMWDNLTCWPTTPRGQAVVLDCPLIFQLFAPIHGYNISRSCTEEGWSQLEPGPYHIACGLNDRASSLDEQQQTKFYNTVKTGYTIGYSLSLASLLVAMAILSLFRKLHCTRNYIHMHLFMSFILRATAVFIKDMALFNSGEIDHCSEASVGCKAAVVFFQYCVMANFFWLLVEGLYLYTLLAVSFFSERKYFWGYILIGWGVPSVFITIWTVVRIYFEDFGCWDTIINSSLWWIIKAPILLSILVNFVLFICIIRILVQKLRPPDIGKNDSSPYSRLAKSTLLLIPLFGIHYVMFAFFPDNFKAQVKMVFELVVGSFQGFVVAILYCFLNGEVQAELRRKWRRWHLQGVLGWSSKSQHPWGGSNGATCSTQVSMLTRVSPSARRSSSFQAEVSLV
- assay.method.text: cell-based or functional assay
Where no end group is shown, it is not given here. [ ]: non-standard residue; d: D form. The star is where a group is joined. Hexanoyl = CCCCCC(=O)*; Aib = CC(C)(N)C(=O)O
Response field label takes yes (1) when cAMP max is strictly below 200 and no (0) in all other cases.

[
  {
    "binder": "Hexanoyl-HSDAVFTDNYTRLR[Aib]QVAA[Aib]KYLQSIKNKRYGGPSSGAPPPS (ends and bridges not checked) [P261]",
    "assigned.class": "yes (1)"
  },
  {
    "binder": "Hexanoyl-HSDAVFTDNYTRLR[Aib]QLAA[Aib]KYLQSIKNKGGPSSGAPPPS (ends and bridges not checked) [P292]",
    "assigned.class": "yes (1)"
  },
  {
    "binder": "Hexanoyl-HSDAVFTDNYTRLLAKLALQKYLQSIKNKRYGGPSSGAPPPS (also called VPAC2-P119) [P119]",
    "assigned.class": "no (0)"
  }
]
